Biological target: T1, 4H953-bH
T1 chain: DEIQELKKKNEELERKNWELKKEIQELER
Experiment: two-hybrid library CCNG1;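 also: natural log of median RNA to DNA barcode read ratio; higher means stronger binding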
Entry flag: Satisfied if interaction score reaches -0.1; Not satisfied if it does not.

Reference set (6 entries):
> print(dat)
                                     binder    group.label
1  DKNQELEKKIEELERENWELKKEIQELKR [4H3354-bH]  Not satisfied
2  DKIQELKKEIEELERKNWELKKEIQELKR [4H2618-bH]      Satisfied
3  DEIQELEKKNEELKREIWELEKKIQELKR [4H454-bH]      Satisfied
4  DEIQELKKENEELKREIWELKKKIQELER [4H717-bH]  Not satisfied
5  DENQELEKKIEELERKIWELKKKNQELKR [4H1328-bH]  Not satisfied
6  DEIQELKKEIEELKRENWELKKKNQELER [4H607-bH]  Not satisfied

For this binder, is measured interaction score -0.1 or higher? DKNQELKKEIEELERKIWELKKKNQELER [4H3631-bH]
Satisfied

Source listed as paper PMC10397247.
